# test-description: protein stability index of a GFP-peptide fusion (yeast GPS) (PSI 1-4); higher = more stable; sorted into four equal gates, so the index is relative within each strain
# condition-set: san1∆
observed-property: protein stability index
Just the number, please.

Any idea what its protein stability index is? The sequence is KEAVFKSLGVKSLGGGA [FAS2] 3.25

Any idea what its protein stability index is? The sequence is SKASMQKEQNVNNRDSE [YCS4] 2.05

Any idea what its protein stability index is? The sequence is AVPRDELGRSNYGMIAI [FAS1] 3.28

Any idea what its protein stability index is? The sequence is NSDKPRDVYVFDKVEVQ [DIS3] 3.1

Any idea what its protein stability index is? The sequence is ALLNFVLPKIFNSVKSF [SNF2] 1.98

Any idea what its protein stability index is? The sequence is NSTATMQHNPLAGKRGP [PGD1] 3

Any idea what its protein stability index is? The sequence is TRLTAYQELAYRATSLD [YML031W/NDC1] 3.32

Any idea what its protein stability index is? The sequence is NQIWNIALNLASKKFGK [SSN2] 3.06

Any idea what its protein stability index is? The sequence is SKYCEKSLPLLITVMEK [YCS4] 2.12

Any idea what its protein stability index is? The sequence is ASITPYKLVNKNKENNT [RPN4] 2.48

Any idea what its protein stability index is? The sequence is TKLNLHCVIEDDESEQI [RRI1] 2.69

Any idea what its protein stability index is? The sequence is PTDSSKILQKRSISKEL [SIR3] 3.02

Any idea what its protein stability index is? The sequence is EGLCIVAGSKCWAVRAD [RRP45] 2.53

Any idea what its protein stability index is? The sequence is QEPSASQVKDSVTETES [SRP68] 3.14

Any idea what its protein stability index is? The sequence is HQNVIIGSNGSGKSNFF [SMC3] 2.84

Entry source: the supplement of paper PMC9732359
